target: T1, human insulin receptor isoform A with C-terminal C9 tag (human, UniProt P06213 28-1382); experiment: 125I-insulin competition SPA, hIR-A membranes, 0.1% BSA
T1 construct: membranes of stably transfected HEK293 cells; also called hIR-A; human IR-A
pKi: −log10 of the molar value.

# binder, pKi
rows = [
    ("INS Analog 7 (other, single-chain insulin B-L2-A-L1-VHH fusion; also called Ex. 7) FVSQHLCGSHLVEALYLVCGERGFFYTPKTGGGGGGGIVEQCCTSICSLYQLENYCGPGPAPGPAPGPAPGPAPGPAPGPAPGPAPGPAEVQLLESGGGLVQPGGSLRLSCAASGRYIDETAVAWFRQAPGKEREFVAGIGGGVDITYYADSVKGRFTISRDNSKNTLYLQMNSLRPEDTAVYYCAARPGRPLITSKVADLYPYWGQGTLVTVSSPP", 7.44),
    ("INS Analog 21 (other, single-chain insulin B-L2-A-L1-VHH fusion; also called Ex. 21) FVSQHLCGSHLVEALHLVCGERGFHYTPKTGGGGGGGIVEQCCHSICSLYQLENYCGGGGGQGGGGQGGGGQGGGGQGGGGQEVQLLESGGGLVQPGGSLRLSCAASGRYIDETAVAWFRQAPGKEREFVAGIGGGVDITYYADSVKGRFTISRDNSKNTLYLQMNSLRPEDTAVYYCAARPGRPLITSKVADLYPYWGQGTLVTVSSPP", 7.55),
    ("INS Analog 17 (other, single-chain insulin B-L2-A-L1-VHH fusion; also called Ex. 17) FVSQHLCGSHLVEALRLVCGERGFFYTPKTGGGGGGGIVEQCCHSICSLYQLENYCGPGPAPGPAPGPAPGPAPGPAPGPAPGPAPGPAEVQLLESGGGLVQPGGSLRLSCAASGRYIDETAVAWFRQAPGKEREFVAGIGGGVDITYYADSVKGRFTISRDNSKNTLYLQMNSLRPEDTAVYYCAARPGRPLITSKVADLYPYWGQGTLVTVSSPP", 7.09),
    ("INS Analog 23 (other, single-chain insulin B-L2-A-L1-VHH fusion; also called Ex. 23) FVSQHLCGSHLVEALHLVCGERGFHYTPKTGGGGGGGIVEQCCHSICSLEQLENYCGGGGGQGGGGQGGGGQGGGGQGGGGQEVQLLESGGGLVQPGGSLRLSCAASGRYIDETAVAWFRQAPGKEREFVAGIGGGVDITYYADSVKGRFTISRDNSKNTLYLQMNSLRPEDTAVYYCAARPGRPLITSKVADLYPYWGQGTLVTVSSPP", 7.26),
    ("INS Analog 22 (other, single-chain insulin B-L2-A-L1-VHH fusion; also called Ex. 22) FVSQHLCGSHLVEALHLVCGERGFHYTPKTGGGGGGGIVEQCCHSICSLYQLENYCGPGPQPGPQPGPQPGPQPGPQPGPQPGPQPGPQEVQLLESGGGLVQPGGSLRLSCAASGRYIDETAVAWFRQAPGKEREFVAGIGGGVDITYYADSVKGRFTISRDNSKNTLYLQMNSLRPEDTAVYYCAARPGRPLITSKVADLYPYWGQGTLVTVSSPP", 7.22),
    ("INS Analog 24 (other, single-chain insulin B-L2-A-L1-VHH fusion; also called Ex. 24) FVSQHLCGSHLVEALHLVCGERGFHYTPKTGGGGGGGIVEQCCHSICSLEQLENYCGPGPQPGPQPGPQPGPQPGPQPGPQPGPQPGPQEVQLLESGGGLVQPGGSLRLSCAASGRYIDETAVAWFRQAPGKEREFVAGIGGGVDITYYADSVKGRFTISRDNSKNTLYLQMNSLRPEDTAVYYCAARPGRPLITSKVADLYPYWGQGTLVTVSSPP", 7.25),
    ("INS Analog 11 (other, single-chain insulin B-L2-A-L1-VHH fusion; also called Ex. 11) FVSQHLCGSHLVEALHLVCGERGFFYTPKTGGGGGGGIVEQCCHSICSLEQLENYCGPGPAPGPAPGPAPGPAPGPAPGPAPGPAPGPAEVQLLESGGGLVQPGGSLRLSCAASGRYIDETAVAWFRQAPGKEREFVAGIGGGVDITYYADSVKGRFTISRDNSKNTLYLQMNSLRPEDTAVYYCAARPGRPLITSKVADLYPYWGQGTLVTVSSPP", 7.44),
    ("INS Analog 20 (other, single-chain insulin B-L2-A-L1-VHH fusion; also called Ex. 20) FVSQHLCGSHLVEALYLVCGERGFFYTPKTGGGGGGGIVEQCCTSICSLYQLENYCGPGPQPGPQPGPQPGPQPGPQPGPQPGPQPGPQEVQLLESGGGLVQPGGSLRLSCAASGRYIDETAVAWFRQAPGKEREFVAGIGGGVDITYYADSVKGRFTISRDNSKNTLYLQMNSLRPEDTAVYYCAARPGRPLITSKVADLYPYWGQGTLVTVSSPP", 7.29),
    ("INS Analog 18 (other, single-chain insulin B-L2-A-L1-VHH fusion; L1 is (PGPA)8; also called Ex. 18) FVSQHLCGSHLVEALRLVCGERGFHYTPKTGGGGGGGIVEQCCHSICSLYQLENYCGPGPAPGPAPGPAPGPAPGPAPGPAPGPAPGPAEVQLLESGGGLVQPGGSLRLSCAASGRYIDETAVAWFRQAPGKEREFVAGIGGGVDITYYADSVKGRFTISRDNSKNTLYLQMNSLRPEDTAVYYCAARPGRPLITSKVADLYPYWGQGTLVTVSSPP", 6.69),
    ("INS Analog 5 (other, single-chain insulin B-L2-A-L1-VHH fusion; also called Ex. 5) FVNQHLCGSHLVEALHLVCGERGFFYTPKTGGGGGGGIVEQCCTSICSLYQLENYCGPGPAPGPAPGPAPGPAPGPAPGPAPGPAPGPAEVQLLESGGGLVQPGGSLRLSCAASGRTVSSTAVAWFRQAPGKEREFVAGIGGSVDITYYADSVKGRFTISRDNSKNTLYLQMNSLRPEDTAVYYCAVRPGRPLITSRDANLYDYWGQGTLVTVSS", 7.24),
    ("INS Analog 25 (other, single-chain insulin B-L2-A-L1-VHH fusion; also called Ex. 25) FVSQHLCGSHLVEALRLVCGERGFFYTPKTGGGGGGGIVEQCCTSICSLYQLENYCGGGGGQGGGGQGGGGQGGGGQGGGGQEVQLLESGGGLVQPGGSLRLSCAASGRYIDETAVAWFRQAPGKEREFVAGIGGGVDITYYADSVKGRFTISRDNSKNTLYLQMNSLRPEDTAVYYCAARPGRPLITSKVADLYPYWGQGTLVTVSSPP", 6.20),
]
